TEST SYSTEM: 3-hydroxyacyl-CoA dehydrogenase type-2 (Homo sapiens) (UniProt Q99714)
TEST DESCRIPTION: qHTS Assay for Inhibitors of HSD17B4, hydroxysteroid (17-beta) dehydrogenase 4;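 also: the protocol describes HADH2 (HSD17B10) and not the HSD17B4 of the title; nearly all actives have a fitted effect of over 70% in size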
DETAILS: recombinant HSD17B10, NADH fluorescence kinetic; series mostly up to 57.1 µM
Among all 75,000 compounds or so, about 5,700 (7.6%) were called active. Another 7% or so got no clear call; they are omitted. Calls follow the shape of the dose curve; as a rule, active = well fitted inhibition curve with a large enough effect; inconclusive = small, poorly fitted or top-dose-only effect; inactive = no such curve, though single readings can be large or run the other way. Many of the other results were omitted from the sample, so actives are more common in it than they were.
Labels: active, inactive

[[record]]
molecule = "O=c1[nH][nH]c(=O)c2cc(N3CCCC3)ccc12"
qualitative_label = "active"

[[record]]
molecule = "CC[C@]1(C)CC(=O)NC1=O"
qualitative_label = "inactive"

[[record]]
molecule = "CCCCN(CC)C(=O)CN(C)S(=O)(=O)c1cccc2nsnc12"
qualitative_label = "inactive"

[[record]]
molecule = "CCOC(=O)c1ccc(N2C(=O)CC(Sc3nc(O)c(CC)c(=O)[nH]3)C2=O)cc1 (stereo unspecified)"
qualitative_label = "inactive"

[[record]]
molecule = "Cc1c(C(=O)OCc2cc(=O)n3cc(Br)ccc3n2)oc2ccccc12"
qualitative_label = "inactive"

[[record]]
molecule = "Cc1c(C(=O)OCC(=O)N(CCC#N)c2ccccc2)oc2c1ccc1ccccc12"
qualitative_label = "active"

